# TARGET_SYSTEM: β-adrenergic receptor (β-AR; subtype not determined)
EXPERIMENTAL_ENDPOINT: pKd
Answer as the number alone; pKd is minus log10 of concentration in mol/L.

Prompt: Quick check: pKd of CC(C)(C)NC[C@H](O)COc1cccc2[nH]c(C#N)c(I)c12 [125I-CYP, (-)3-[125I]iodocyanopindolol] ?
Response: 10.49
